Assay method text: Steady state volume of distribution at a dose of 0.2 mg/kg i.v.
Format: ADME, organism-based, Canis lupus familiaris
Design: dose 0.2 mg/kg, route intravenous
Assay context: dog, in vivo, iv, read-out: Vss
Measurement type: Vd (L/kg)
Just the number in L/kg, nothing appended.

Look up Vd for this compound: "CCC[C@H](C)n1c(CC)nc2c(-c3ccc(OC(F)(F)F)cc3Cl)nccc21" 19.1

====

Assay method text: Partition coefficient (logP)
Type: physicochemical
Assay context: octanol/water
Rule: logP below 5 gives Fulfilled. Equal to or above 5 gives Not fulfilled.

Some solved cases for reference:
Compound	Label value
CCc1nc2c(-c3ccc(Cl)cc3Cl)ccnc2n1C(CC)C1CC1 (stereo not given)	Not fulfilled
CCc1nc2c(-c3ccc(Cl)cc3Cl)nccc2n1C(CC)C1CC1 (stereo not given)	Fulfilled
CCc1nc2c(-c3ccc(Cl)cc3Cl)ncnc2n1C(C)C1CC1 (stereo not given)	Fulfilled
CCCC(C)n1c(CC)nc2c(-c3ccc(OC(F)(F)F)cc3Cl)nccc21 (stereo not given)	Fulfilled

Please examine the following record next.
Here's an entry: CCCC(C)n1c(CC)nc2c(-c3ccc(OC(F)F)cc3Cl)ccnc21 (stereo not given) . Is its logP below 5? Not fulfilled
